These data points were gathered from PubChem BioAssay (NCI).

- Tested on: SK-MEL-5 melanoma
- protocol: NCI-60 one-dose screen, 48 h
- test parameters: 10 µM unless noted
About 83,000 compounds went through this panel and 20% of them were active in at least one assay; those are over-represented in the sample as a whole. Active and inactive are the calls of the source. Rule for the calls: active = growth percent below 10; inactive = the rest.
Possible outcomes: active, inactive

molecule	class name
C#CCNC(=O)CC[C@@H](C)[C@H]1CC[C@H]2[C@@H]3CC[C@@H]4CC(=O)CC[C@]4(C)[C@H]3CC[C@]12C	active
Cn1cc(-c2nnc(-c3ccccc3)s2)c2cc(Br)cnc21	inactive
CCCCN(CC)CC(CC)Nc1cc(OC)cc2cccnc12 (stereo not drawn)	inactive
CC(C)C1=NOC(=O)C1=Cc1cn(-c2ccccc2)nc1-c1ccc(Br)cc1	inactive
CC[C@]1(O)CC2CN(CCc3c([nH]c4ccccc34)[C@@](C(=O)OC)(c3cc4c(cc3OC)N(C=O)[C@H]3[C@@](O)(C(=O)OC)[C@H](OC(C)=O)[C@]5(CC)C=CCN6CC[C@]43[C@@H]65)C2)C1 (stereo partly drawn)	active
Cn1cc(-c2nnc(-c3cn(C)c4ncc(Br)cc34)o2)c2ccccc21	inactive
CC(C)=CC/C=C(/C)[C@H]1CC[C@]2(C)[C@@H]1CC[C@@H]1[C@@]3(C)CCCNC(C)(C)[C@@H]3CC[C@]12C	active
O=C(N/N=C1\c2ccccc2-c2cccc(C(=O)O)c21)c1ccc(O)cc1	inactive

====

- Tested on: HCC-2998 colon
- protocol: NCI-60 one-dose screen, 48 h
- test parameters: 10 µM unless noted
Compounds without any hit were thinned out: in the full panel of roughly 83,000, 20% have a hit. The source made the active and inactive calls. The calls were made as follows: active = growth percent below 10; inactive = the rest.
Possible outcomes: 1 for active, -1 for inactive

compound	class name
Cc1cc[n+](CCCCCCCCCC[n+]2ccc(C)cc2)cc1	-1
CC1(C)CC[C@]2(C(=O)O)CC[C@]3(C)[C@H](CC[C@@H]4[C@@]5(C)CCC(=O)C(C)(C)[C@@H]5CC[C@]43C)[C@H]2[C@H]1OC(=O)C(F)(F)F	1
Clc1ccc2nc(-c3ccc(-c4ccc(/C=N/NC5=NCCN5)cc4)s3)cn2c1	-1
CC(C)CCSc1nc(N)nc2nc[nH]c12	-1
C=CCc1nc2ccccc2s1	-1
Cc1cnc([C@]23CC[C@@H](C)[C@H](C)[C@H]2C2=CC[C@@H]4[C@@]5(C)Cc6c([nH]c7ccccc67)C(C)(C)[C@@H]5CC[C@@]4(C)[C@]2(C)CC3)o1	-1
CCOC(=O)c1cc(C#N)n2ncc3ccccc3c12	-1
CC(C)(C)OC(=O)N1C=C/C(=C\Cn2cc(-c3ccccc3)nn2)CC1	-1
CNC(=O)c1cc(Oc2ccc3nc(NC(=O)c4ccc5ncccc5c4)sc3c2)ccn1	-1
Cc1cnc(N)nc1OCC(C)(C)CNC(=O)c1cccc(-c2ccc(S(=O)(=O)Nc3ccc4c(c3)N(C(=O)C3CC3)CCC4)cc2)c1	-1
Cn1ncc2c(Nc3ccc(O)cc3)nc(Cl)nc21	-1
N#C/C(C(=O)c1ccccc1)=C1/C(=O)Nc2ccc(Br)cc21	-1
c1cc2ccc3cc2cc1CNCCN1CCNCc2ccc4ccc(cc4c2)CNCCN(CCNC3)CCNCc2ccc3ccc(cc3c2)CNCC1	-1
Cc1ccc(-c2cc(O)c(-c3ccc(C)cc3C)cc2O)c(C)c1	-1
O=C1COCCN1c1ccc(NCc2cn(Cc3ccccc3)c3ccccc23)cc1	-1
Cc1ccc(S(=O)(=O)n2cc(C(=O)C(=O)N3CCCCC3)c3ccccc32)cc1	-1
Cc1ccc(C2=C/C(=C/c3ccc(Br)cc3)C(=O)N2CCc2ccc(S(N)(=O)=O)cc2)cc1	-1
O=C1/C(=C\c2cccn2Cc2ccccc2)c2ccccc2N1c1c(Cl)cccc1Cl	-1
C#C[C@]1(O)CC[C@H]2[C@@H]3CC=C4c5nc(Nc6ccc(OC)cc6OC)sc5CC[C@]4(C)[C@H]3CC[C@@]21C	-1
CCN(CC)CCCC(C)Nc1ccnc2cc(Cl)c(SCc3ccccc3)cc12 (configuration not stated)	1
CC1(C)CC[C@]2(C(=O)OC(=O)[C@]34CCC(C)(C)C[C@@H]3C3=CC[C@@H]5[C@@]6(C)CCC(=O)C(C)(C)[C@@H]6CC[C@@]5(C)[C@]3(C)CC4)CC[C@]3(C)C(=CC[C@@H]4[C@@]5(C)CCC(=O)C(C)(C)[C@@H]5CC[C@]43C)[C@H]2C1	-1
Nc1ccc2c(c1)Cc1cc(NC(=O)C(F)(F)F)ccc1-2	-1
Nc1cc(C(=O)O)[nH]c(=S)n1	-1
O=C1COCCN1c1ccc(NCc2cn(Cc3ccc(F)cc3)c3ccccc23)cc1	-1
C=CCCC1(C)NC(=O)NC1=O (configuration not stated)	-1
COc1ccc(-c2c(C)nn3c(NCCN4CCOCC4)cc(C)nc23)cc1OC	-1
O=C(Nc1ccc(C(=O)/C=C/c2ccc(N3CCOCC3)cc2)cc1)Nc1ccc([N+](=O)[O-])cc1	-1
O=C1COCCN1c1ccc(Nc2nc(Cl)nc(N3CCOCC3)n2)cc1	-1
O=S(=O)(NCCCNc1nccc(-c2c(-c3cccc(F)c3)nc3occn23)n1)c1cccc2ccccc12	1
CC[C@]12C=CCN3CC[C@@]4(c5ccc(OC)cc5N(C)[C@H]4[C@@](O)(C(=O)OC)[C@@H]1OC(=O)CCC(=O)O[C@H]1CC[C@H]4[C@@H]5CCC6=CC(=O)CC[C@@H]6[C@H]5CC[C@]14C)[C@@H]32	1
CC1Cc2c(Cl)ncnc2N(C)c2ccc(O)cc21 (configuration not stated)	-1
CCN1c2ccccc2C(Cl)(c2ccc(N(C)C)cc2)c2ccccc21	-1
CCOC(=O)C(C(C)=O)c1nc2sc3cc(Cl)c(Cl)cc3n2c(=O)c1C#N (configuration not stated)	-1
CN(C)c1ccc(-c2ccc(-c3ccc(C(=N)N)cc3)s2)cc1	1
O=C(CSc1nccc(Nc2ccc(S(=O)(=O)Nc3ccccn3)cc2)n1)c1ccc(Cl)cc1	-1
COc1ncc(-c2ccc3nccc(C#CCCCCC(=O)O)c3c2)cc1NS(=O)(=O)c1ccc(F)cc1F	-1
COc1ccc(/C=C/C(=C/c2c(O)[nH]c3cc(Br)ccc23)N=O)cc1	-1

====

- System: ACHN renal
- protocol: NCI-60 one-dose screen, 48 h (100 = growth as untreated, 0 = no growth, -100 = all killed)
- test parameters: 10 µM unless noted
The panel holds about 83,000 compounds, 20% with a hit somewhere; the sample as a whole holds those more often.

molecule	measurement units	growth
O=C(Nc1ccc(Oc2ccc(F)cc2)c(Cl)c1)c1cnccn1	%	94.1
CC1=CCc2ccccc21	%	98.6
CC1=CC[C@@H]2C(C)(C)[C@@H](O)CC[C@@]2(C)[C@@H]1COc1ccc2ccc(=O)oc2c1	%	48.6
COc1c(C(C)=O)c(OCCCCOc2c(C(C)=O)c(OC)c3ccoc3c2OC)c(OC)c2occc12	%	75.7
CCOC(=O)c1ccc2nc(-c3c(C)nn(-c4ccccc4)c3N3CCOCC3)[nH]c2c1	%	86.2
O=C(Oc1ccc(Cl)cc1[N+](=O)[O-])Oc1ccc(Cl)cc1[N+](=O)[O-]	%	108
C#CCOc1ccc(C2=NN(CC3CC3)C3N=C(Cl)c4ncn(CC5CC5)c4N23)cc1OCC#C (centres undefined)	%	62
CCCCC(CCCCCC(CCCC)C1NC(C)Cc2cc(OC)c(OC)cc21)C1NC(C)Cc2cc(OC)c(OC)cc21 (centres undefined)	%	-100
CO[C@H]1CC[C@@]2(C)C(=CC[C@H]3[C@@H]4C[C@H](O)C[C@@]4(C)CC[C@@H]32)C1	%	69.6

====

- Tested on: SK-MEL-2 melanoma
- protocol: NCI-60 one-dose screen, 48 h
- test parameters: 10 µM unless noted
This is part of a sample that, as a whole, favours compounds with a hit. Of some 83,000 tested, about 20% had one in any assay. Active and inactive are the calls of the source. Rule for the calls: active = growth percent below 10; inactive = the rest.
Possible outcomes: active, inactive

molecule	class name
CCOc1ccc2sc(NS(=O)(=O)c3ccc(N)cc3)nc2c1	inactive
COc1c(C(C)=O)c(OCCCCOc2c(C(C)=O)c(OC)c3ccoc3c2OC)c(OC)c2occc12	inactive
Cc1cc(SC#N)ncn1	inactive
C=C(C)[C@@H]1CC[C@]2(C)[C@H](C(=O)C=C3[C@@H]4C[C@](C)(C(=O)N5CCN(C)CC5)CC[C@]4(C)CC[C@]32C)[C@@]1(C)CCC#N	active
C[C@@H](NC(=O)[C@@H](CC(=O)N1CCC(N2CCCCC2)CC1)N1C(=O)[C@@H](N2C(=O)OC[C@@H]2c2ccccc2)[C@H]1/C=C/c1cccc(Cl)c1)c1ccccc1	inactive
O=C1CC(C(F)(F)F)Cc2nc3ccc(Br)cc3cc21 (stereo not drawn)	inactive
C[C@H]1[C@H](C)CC[C@]2(C(=O)O)CC[C@]3(C)C(=CC[C@@H]4[C@@]5(C)C/C(=C/c6ccco6)C(=O)C(C)(C)[C@@H]5CC[C@]43C)[C@H]12	active
O=C(Nc1ccc(CN2CCOCC2)c(C(F)(F)F)c1)c1nc2ccc3[nH]ncc3c2c2c1CCCC2	inactive
